B1: TPR t1 (parent)
chain: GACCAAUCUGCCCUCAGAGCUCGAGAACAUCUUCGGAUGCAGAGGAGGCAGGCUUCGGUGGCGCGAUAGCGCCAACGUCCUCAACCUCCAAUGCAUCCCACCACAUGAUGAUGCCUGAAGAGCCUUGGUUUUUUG

Variants of: B1
Assay: polymerase ribozyme fitness, log enrichment relative to wild type (log ratio); higher = more active; in vitro selection for triplet polymerase activity
Could you please report measured polymerase ribozyme fitness (log ratio) for the items listed next?

Here are 3 variants together with their reported answers.
* G23C C70A G113U G117C | -6.09
* A46U C70A C85U | -3.76
* A2U A41C C114U U133G | -5.64

Dear colleague, could you send me polymerase ribozyme fitness (log ratio) for each of the items below? Thanks.
1. G45U C56A G128C
2. G45A U81G
3. A29G U55G G63A U131C U133G

Output:
1. -5.66
2. -3.71
3. -2.37
